System: OVCAR-3 ovarian
PROCEDURE SUMMARY: NCI tumour cell line growth inhibition, 48 h; in the data active means GI50 below about 0.43 µM; inactive means the rest
A correct response names exactly one class from TRUE = active, FALSE = inactive

Study these solved cases before continuing.
{"COMPOUND": "COC(=O)c1cc2c3cc(Cl)ccc3[nH]c2c2ncccc12", "GROUP LABEL": "FALSE"}
{"COMPOUND": "COc1cccc2c1C(=O)c1c(O)c3c(c(O)c1C2=O)C[C@@](O)(C(=O)CO)C[C@@H]3OC1CC2C(OCN2CN2COC3C(C)OC(O[C@H]4C[C@](O)(C(=O)CO)Cc5c(O)c6c(c(O)c54)C(=O)c4c(OC)cccc4C6=O)CC32)C(C)O1 (some centres undefined)", "GROUP LABEL": "TRUE"}
{"COMPOUND": "COc1ccc(/C(=N/O)c2cc(F)c(F)c(OC)c2F)cc1O", "GROUP LABEL": "TRUE"}
{"COMPOUND": "CCc1n(Cc2ccc3ccccc3c2)cc[n+]1Cc1ccc2ccccc2c1", "GROUP LABEL": "FALSE"}
{"COMPOUND": "CCOC(=O)c1nc2sc(Cl)cn2c1/C=N/N=C(N)N", "GROUP LABEL": "FALSE"}
{"COMPOUND": "COc1ccc(C(=O)c2no[n+]([O-])c2C(=O)c2ccc(OC)cc2)cc1", "GROUP LABEL": "FALSE"}
{"COMPOUND": "N#C/C(=C\\c1ccccn1)c1nc2ccccc2o1", "GROUP LABEL": "FALSE"}
{"COMPOUND": "C=CCC(NCc1ccccc1)c1cn(C(=O)OCC)c2ccccc12 (centres undefined)", "GROUP LABEL": "FALSE"}

Here is another compound to look at.
Asked: // outcome(item) with item = Nc1ncnc2c1ncn2C1OC(F)(COS(N)(=O)=O)C(O)C1O (centres undefined)
Given back: FALSE
